Biological target: human Gal-1 (hGal-1) (Homo sapiens, UniProt P09382, C131S/C17S/C43S/C61S/C89S)
Experiment: Competitive binding assay: biotinylated hGal-1 binding to microplate-adsorbed asialofetuin (ASF)
Details: IC50 values from several measurements given as geomean
pIC50: −log10 of the molar value.
quantity: pIC50

molecule	quantity	endpoint.value
CO[C@@H]1[C@@H](n2cc(-c3ccc(Br)c(F)c3F)nn2)[C@@H](O)[C@@H](CO)O[C@@H]1Cc1cn(C2(CF)COC2)nn1	pIC50	6.07
CO[C@@H]1[C@@H](n2cc(-c3ccc(C)c(F)c3F)nn2)[C@@H](O)[C@@H](CO)O[C@@H]1Cc1cn(C23CCC(O)(CC2)CC3)nn1	pIC50	5.40
CO[C@@H]1[C@@H](n2cc(-c3ccc(Cl)c(F)c3F)nn2)[C@@H](O)[C@@H](CO)O[C@@H]1Cc1cn(C2CC(F)C2)nn1 (single isomer, unassigned) [Example 2.1.60.A]	pIC50	6.16
CO[C@@H]1[C@@H](n2cc(-c3ccc(Br)c(F)c3F)nn2)[C@@H](O)[C@@H](CO)O[C@@H]1Cc1cn(C2(C)CC2)nn1	pIC50	5.74
CO[C@@H]1[C@@H](n2cc(-c3ccc(Br)c(F)c3F)nn2)[C@@H](O)[C@@H](CO)O[C@@H]1Cc1cn(C2(C(F)(F)F)CCC2)nn1	pIC50	5.83

I = CO[C@@H]1[C@@H](n2cc(-c3ccc(Cl)c(F)c3F)nn2)[C@@H](O)[C@@H](CO)O[C@@H]1Cc1cn([C@]2(C)C[C@H](F)C2)nn1
II = CO[C@@H]1[C@@H](n2cc(-c3ccc(Cl)c(F)c3F)nn2)[C@@H](O)[C@@H](CO)O[C@@H]1Cn1cc(C2(O)CCCC2)nn1
Lower value for measured pIC50? Options: I , II # reply format: chosen label
II
(II: 5.32, I: 5.92)

* * *

Target: human Gal-1 (hGal-1) (Homo sapiens, UniProt P09382, C131S/C17S/C43S/C61S/C89S)
Test: Competitive binding assay: biotinylated hGal-1 binding to microplate-adsorbed asialofetuin (ASF)
Conditions: IC50 values from several measurements given as geomean
pIC50: −log10 of the molar value.
quantity: pIC50

a = CO[C@@H]1[C@@H](n2cc(-c3ccc(Cl)c(F)c3F)nn2)[C@@H](O)[C@@H](CO)O[C@@H]1Cc1cn([C@@]2(C(F)(F)F)C[C@H]3C[C@H]3C2)nn1 [Ex 2.1.69.]
b = CO[C@@H]1[C@@H](n2cc(-c3ccc(F)c(F)c3F)nn2)[C@@H](O)[C@@H](CO)O[C@@H]1Cc1cn(C(C)(C)C(F)F)nn1 [Ex 3.1.28.]
Lower value for measured pIC50? Options: a , b # reply format: chosen label
a

* * *

Molecular target: human Gal-3 (hGal-3) (Homo sapiens (Human))
Sequence (P17931 whole entry): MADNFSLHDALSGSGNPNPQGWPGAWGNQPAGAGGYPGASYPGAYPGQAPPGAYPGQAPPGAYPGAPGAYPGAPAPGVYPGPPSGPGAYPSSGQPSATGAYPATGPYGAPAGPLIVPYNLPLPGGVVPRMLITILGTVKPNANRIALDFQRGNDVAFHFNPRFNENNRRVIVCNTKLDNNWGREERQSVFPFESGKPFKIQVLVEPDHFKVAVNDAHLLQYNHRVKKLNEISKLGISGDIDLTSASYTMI
pIC50: −log10 of the molar value.
quantity: pIC50

Example results:
molecule	endpoint.value
CO[C@@H]1[C@@H](n2cc(-c3ccc(Cl)c(F)c3F)nn2)[C@@H](O)[C@@H](CO)O[C@@H]1Cc1cn(C23COC(C2)C3)nn1 [Ex 2.1.44.]	7.52
CO[C@@H]1[C@@H](n2cc(-c3ccc(C)c(F)c3F)nn2)[C@@H](O)[C@@H](CO)O[C@@H]1Cc1cn([C@]2(C)C[C@@H](O)C2)nn1 [Ex 1.1.27.]	7.52
CO[C@@H]1[C@@H](n2cc(-c3ccc(Cl)c(F)c3F)nn2)[C@@H](O)[C@@H](CO)O[C@@H]1Cc1cn(C23CC(C)(C2)C3)nn1 [Ex 2.1.14.]	7.30
CO[C@@H]1[C@@H](n2cc(-c3ccc(C)c(F)c3F)nn2)[C@@H](O)[C@@H](CO)O[C@@H]1Cc1cn(C2(CO)CC(F)(F)C2)nn1 [Ex 1.1.18.]	7.30

I = CO[C@@H]1[C@@H](n2cc(-c3ccc(Cl)c(F)c3F)nn2)[C@@H](O)[C@@H](CO)O[C@@H]1Cn1cc(C23CC(C2)C3)nn1 [Ex 2.2.12.]
II = CO[C@@H]1[C@@H](n2cc(-c3ccc(C#N)c(F)c3F)nn2)[C@@H](O)[C@@H](CO)O[C@@H]1Cc1cn([C@H]2CCOC[C@@H]2F)nn1 [Ex 5.1.66.CD]
Lower value for measured pIC50? Options: I , II # reply format: chosen label
I
(I: 7.30, II: 7.52)

From: patent US20240109930A1
